Numbers sourced from patent US20110003711A1.

Target Of Assay: GABAA receptor α1β3γ2s (α1) (Homo sapiens, UniProt P14867+P18507+P28472)
Construct: Human GABAA receptor alpha 1 subunit amino acid; Human GABAA receptor beta 3 variant 1 subunit amino acid; Human GABAA receptor gamma 2 variant 1 (short) subunit amino acid; expressed in transfected cells
Sequence (P14867 28-456): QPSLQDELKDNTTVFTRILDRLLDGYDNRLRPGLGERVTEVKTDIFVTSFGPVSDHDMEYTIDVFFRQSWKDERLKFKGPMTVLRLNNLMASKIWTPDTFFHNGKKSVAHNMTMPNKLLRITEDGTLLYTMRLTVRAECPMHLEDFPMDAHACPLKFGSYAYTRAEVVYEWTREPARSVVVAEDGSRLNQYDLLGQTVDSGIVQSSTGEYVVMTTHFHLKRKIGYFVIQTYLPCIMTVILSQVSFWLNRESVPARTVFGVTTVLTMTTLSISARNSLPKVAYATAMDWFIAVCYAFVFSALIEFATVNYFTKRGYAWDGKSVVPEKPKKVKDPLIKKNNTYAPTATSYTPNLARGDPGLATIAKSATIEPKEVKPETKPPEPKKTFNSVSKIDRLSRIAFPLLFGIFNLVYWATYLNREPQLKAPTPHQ
Sequence (P28472 26-473): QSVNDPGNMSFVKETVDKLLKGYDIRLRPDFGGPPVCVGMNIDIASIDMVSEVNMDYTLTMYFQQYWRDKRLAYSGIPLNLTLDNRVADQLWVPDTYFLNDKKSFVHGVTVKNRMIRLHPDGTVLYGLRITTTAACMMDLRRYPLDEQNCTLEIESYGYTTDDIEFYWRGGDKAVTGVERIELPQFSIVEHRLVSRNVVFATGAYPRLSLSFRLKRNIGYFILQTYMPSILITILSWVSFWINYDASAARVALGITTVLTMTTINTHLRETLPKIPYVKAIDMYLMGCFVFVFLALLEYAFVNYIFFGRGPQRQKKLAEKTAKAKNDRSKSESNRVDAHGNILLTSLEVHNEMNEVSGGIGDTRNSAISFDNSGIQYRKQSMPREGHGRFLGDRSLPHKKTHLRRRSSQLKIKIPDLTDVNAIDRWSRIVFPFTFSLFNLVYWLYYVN
Sequence (P18507 40-467 isoform P18507-1 limits assumed): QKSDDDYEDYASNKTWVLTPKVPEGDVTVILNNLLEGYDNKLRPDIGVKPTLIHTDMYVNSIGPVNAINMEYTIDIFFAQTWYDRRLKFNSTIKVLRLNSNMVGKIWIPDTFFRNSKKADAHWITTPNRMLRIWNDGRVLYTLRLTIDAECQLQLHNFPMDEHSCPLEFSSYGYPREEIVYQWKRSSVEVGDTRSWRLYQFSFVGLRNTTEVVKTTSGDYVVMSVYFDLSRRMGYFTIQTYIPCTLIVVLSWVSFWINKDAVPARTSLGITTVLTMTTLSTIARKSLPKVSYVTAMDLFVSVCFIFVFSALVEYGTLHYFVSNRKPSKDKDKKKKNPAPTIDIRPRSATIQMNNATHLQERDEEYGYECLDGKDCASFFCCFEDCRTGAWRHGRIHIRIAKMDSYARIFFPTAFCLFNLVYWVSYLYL
Test Summary: Membrane potential assay, CHO cell line expressing GABAA α1β3γ2s
Type: cell-based
Run Conditions: membrane potential assay, CHO α1β3γ2s cell line; read-out: EC50 Values α1
Where a name gives a salt, the structure may show the parent alone.
Measured Metric: EC50 (µM)
The figure you give is taken to be in µM; do not add the unit.

Q: Consider the molecule O=S(=O)(O)C1CCNCC1 and give its measured EC50.
Result: 13

Q: # repeat for CC(C)(C)c1cc(C=C(C#N)C#N)cc(C(C)(C)C)c1O
Result: 1.8

Q: Check O=C(O)C1=CCNCC1 [Isoguvacine hydrochloride] too.
Result: 3.57

Q: Queued: C[C@]12CC[C@@H](O)C[C@@H]1CC[C@@H]1[C@@H]2CC[C@]2(C)[C@@H](C(=O)CO)CC[C@@H]12
Result: 0.382

Q: Subsequent entry: CC(=O)[C@H]1CC[C@H]2[C@@H]3CC[C@H]4C[C@H](O)CC[C@]4(C)[C@H]3CC[C@]12C
Result: 0.692

Q: Also, CCOC(=O)c1cnc2c(cnn2CC)c1NN=C(C)C [Etazolate] please.
Result: 2.54

Q: CCCCNc1c(C(=O)OCC)c(C)nc2c1cnn2CC [Tracazolate] , same question.
Result: 10.6

Q: Now try COc1cc(/C=C(\C#N)C(=O)c2ccc(O)c(O)c2)cc(I)c1O .
Result: 3.5
